assay: Levetiracetam blood plasma levels in aMCI patients; assay type: in vivo; conditions: human, oral, based on aMCI patients, read-out: effective plasma level range (preferred range goal)
Quantity Measured: concentration at 2 weeks

Exam item: # input compound: CC[C@@H](C(N)=O)N1CCCC1=O [levetiracetam, (2S)-2-(2-oxopyrrolidin-1-yl)butanamide] ; wanted: its concentration at 2 weeks
Marked response: 2900 to 4400 ng/mL
